- Test Name: soluble fraction after stress (log2 fold change); higher = more stays soluble; pooled small domains, quantitative proteomics
- Condition Description: stress: 50 degC
Would you mind telling me the reported soluble fraction (log2) of each entry?
# print the numeric value only

query: State its soluble fraction (log2) for this sequence: `HMVPLGDLSKNERRAMELAATNGNVTTRALADDAQVTKRTASTTLRRLAKRGLLEWIGKGPSDPGQFYRIP`
result: -0.123

query: State its soluble fraction (log2) for this sequence: `HMADTPQAYIRQMVQEAGADGIMLSTITDRLRARFKDFKVRDLGYAQMRQYMASTGTYDLEKSGRNFRVHL`
result: -0.935

query: State its soluble fraction (log2) for this sequence: `HMDSYADVLSDYRGKYKTNTISGLKGLRDKIREDMLAAADSLDFEKAALLRDEMNDLNKKIELKEKT`
result: 0.505

query: State its soluble fraction (log2) for this sequence: `HMTKIEYTEQEFNDFIQAYKNNRKMFPEDYIVKTQVVFINKGFSKSQADMIIAQIETRLRLQGE`
result: -0.421

query: State its soluble fraction (log2) for this sequence: `HMGGNDALEIAKSNPQVIEVLGEPVTKDGMGSYSVNYKNGHKTSEATIPIEGPNGTATLHVKTSGSDDAL`
result: 0.261

query: State its soluble fraction (log2) for this sequence: `HMEILVSTRRHEIASLLSRKKRVSFFELFPEKTKEYVVATFLAILEMAKAREVNITQEDTFDEIIVEEA`
result: -0.43

query: State its soluble fraction (log2) for this sequence: `HMDSTSEILKVIQNIVKKEDPYHPLSDDKISNLLNDLDYQISRRTVAKYRDILTIPSSSKRRKL`
result: -0.432

query: State its soluble fraction (log2) for this sequence: `HMTAAPEVRVEGLFKGAAVLKIDGQQVMLKKGRSHSSGVTLVDANAHRAIVEIDGQRHELALHMA`
result: 0.0499

query: State its soluble fraction (log2) for this sequence: `HMKESFAQLFSLLTPTEQKVAALISQGFSNKDIAAKMFISLSTVKTHTNHIFAKMGVANRNALVAKVNN`
result: -1.08

query: State its soluble fraction (log2) for this sequence: `HMSPTDKATVNVYALNVRTGPGTNYKVLGSVIKGTELQVLGSSGKWLKVKYGNREAYVAGWLVK`
result: -1.62

query: State its soluble fraction (log2) for this sequence: `HMIDVGSKIRSLRKSKNISISTLAKNSDLSTGLISQIERNMVVPSIVAMWKISKALDINIGYFFE`
result: -2.42

query: State its soluble fraction (log2) for this sequence: `HMKNSIKLDNFVGMSYDEVISNKEYDFNFVSAFEKTSDYEAGTIIGQTPAAEERVMVGTTVTLTVAQP`
result: 0.0342

query: State its soluble fraction (log2) for this sequence: `HMGLAWTVEGRTVLLGRTADRIELYNVGGGLVALARESDRISAPGVGLYVVRVVSDGQSVSQKIWIT`
result: -0.394

query: State its soluble fraction (log2) for this sequence: `HMENLRLSELTVERGHRLAGRTLADIASAPNSPKYLIVLIQRGQETVIPTGSTVILPGDVLILAQS`
result: -0.605

query: State its soluble fraction (log2) for this sequence: `HMDTNELIDRYVNEVGQHLPRKTRADIEMELRSLLLDTLEEQSGGEPTPKMAAEVLREFGHPEEIAAQYH`
result: -0.0557

query: State its soluble fraction (log2) for this sequence: `HMFHDALVSFAERRVIFMKELVNRLNEARKAYYEGESIMSDKEYDNLYDKLVKMELTTGVVLPNSPTEEVG`
result: -1.37

query: State its soluble fraction (log2) for this sequence: `HMIEGETPEQTMERVSKDPEIVQILQDPVMQGILAQARENPAALQDHMKNPEVYKKINMLIAAGVIRT`
result: 0.0669
